- systemTested: BTK-NanoLuc fusion (Homo sapiens)
- Construct: host or cells: HEK293
- measurementProtocol: NanoBRET cellular engagement of BTK
- Assay type: cell-based
- measurementConditions: HEK293 cells, 120 min (30 + 90)
- Procedure: NanoBRET Experiments: HEK293 cells were transfected with the BTK-NanoLuc fusion vector (Promega, #N2501) according to the manufacturer’s protocol. After […] Promega, #N2501) for 30 minutes. […] After 5-10 minutes, the BRET ratio was measured using BMG Labtech CLARIOstar with preloaded filters for donor 450nm/80nm BP (band pass) and acceptor 610nm LP (long
Catalogue of compounds with associated IC50
I only need the number, in µM, no unit after it.

# compound, scaleUnit, IC50
records = [
    ("C=CC(=O)N1CCC[C@@H](n2nc(-c3ccc(Oc4ccccc4)cc3C)c3c(N)ncnc32)C1", "µM", 0.109),
]

For the next question, use this compound.
Enquiry: Any idea what its IC50 is? The compound is C=CC(=O)N1CCCC(n2nc(-c3c(C)cc(Oc4ccccc4)cc3C)c3c(N)ncnc32)C1 (stereo in doubt)
Return: 0.315

* * *

- systemTested: BTK-NanoLuc fusion (Homo sapiens, UniProt Q06187)
- Construct: host or cells: HEK293
- Sequence (Q06187 whole entry, the tested form may be a part): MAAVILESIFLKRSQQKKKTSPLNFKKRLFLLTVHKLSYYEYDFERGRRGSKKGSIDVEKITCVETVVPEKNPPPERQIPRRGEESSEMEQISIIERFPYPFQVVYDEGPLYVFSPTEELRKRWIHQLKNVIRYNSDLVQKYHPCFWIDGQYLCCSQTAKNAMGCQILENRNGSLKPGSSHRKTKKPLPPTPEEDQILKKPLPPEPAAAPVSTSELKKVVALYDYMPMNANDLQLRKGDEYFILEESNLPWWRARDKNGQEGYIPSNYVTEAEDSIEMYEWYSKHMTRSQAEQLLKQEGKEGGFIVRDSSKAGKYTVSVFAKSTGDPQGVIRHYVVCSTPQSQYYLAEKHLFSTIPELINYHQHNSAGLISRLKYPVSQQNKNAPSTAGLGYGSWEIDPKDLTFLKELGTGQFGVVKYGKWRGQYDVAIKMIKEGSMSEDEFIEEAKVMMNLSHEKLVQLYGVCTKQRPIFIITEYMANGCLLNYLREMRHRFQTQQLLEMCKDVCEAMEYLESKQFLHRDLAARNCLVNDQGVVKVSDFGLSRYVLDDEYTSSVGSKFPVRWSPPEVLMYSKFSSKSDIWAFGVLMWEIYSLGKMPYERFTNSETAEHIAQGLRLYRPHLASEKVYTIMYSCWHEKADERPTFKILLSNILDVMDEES
- measurementProtocol: NanoBRET cellular engagement of BTK
- Assay type: cell-based
- measurementConditions: HEK293 cells, 90 min post compound addition
IC50 by entry:
// note: answer is a bare numeric in nM

# compound, endpointResult
records = [
    ("C=CC(=O)N1CCCC(n2nc(-c3c(C)cc(Oc4ccccc4)cc3C)c3c(N)ncnc32)C1 (stereo in doubt)", 314),
]

Please look at the following compound next.
Enquiry: Field request: IC50 | item: C=CC(=O)N1CCC[C@@H](n2nc(-c3ccc(Oc4ccccc4)cc3C)c3c(N)ncnc32)C1
Return: 109

* * *

- systemTested: BTK-NanoLuc fusion (Homo sapiens)
- Construct: host or cells: HEK293
- measurementProtocol: NanoBRET cellular engagement of BTK
- Format: cell-based
- measurementConditions: HEK293 cells, 90 min (30 + 60)
Examples of molecules with documented pIC50 follow.
Please treat pIC50 as minus the base-10 logarithm of the molar concentration.

# molecule, pIC50
measured = [
    ("C=CC(=O)N1CCCC(n2nc(-c3c(C)cc(Oc4ccccc4)cc3C)c3c(N)ncnc32)C1 (stereo in doubt)", 6.47),
]

Enquiry: What does the record list as pIC50 for C=CC(=O)N1CCC[C@@H](n2nc(-c3ccc(Oc4ccccc4)cc3C)c3c(N)ncnc32)C1 ?
Return: 6.93

* * *

Entries annotated with measured pIC50
- systemTested: BTK-NanoLuc fusion (Homo sapiens, UniProt Q06187)
- Construct: host or cells: HEK293
- measurementProtocol: NanoBRET cellular engagement of BTK
- Assay type: cell-based
- measurementConditions: HEK293 cells, 60 min (30 + 30)
Please treat pIC50 as minus the base-10 logarithm of the molar concentration.

# compound, systemTested, endpointResult
records = [
    ("C=CC(=O)N1CCC[C@@H](n2nc(-c3ccc(Oc4ccccc4)cc3C)c3c(N)ncnc32)C1", "BTK-NanoLuc fusion (Homo sapiens, UniProt Q06187)", 6.81),
]

Now consider a different compound.
Enquiry: Any idea what its pIC50 is? The compound is C=CC(=O)N1CCCC(n2nc(-c3c(C)cc(Oc4ccccc4)cc3C)c3c(N)ncnc32)C1 (stereo in doubt)
Return: 6.32

* * *

- systemTested: BTK-NanoLuc fusion (Homo sapiens, UniProt Q06187)
- Construct: host or cells: HEK293
- measurementProtocol: NanoBRET cellular engagement of BTK
- Type: cell-based
- measurementConditions: HEK293 cells, 30 min
assayMetric: IC50 (nM)
API: value field is a number in nM; no unit string.

# compound, endpointResult
data = [
    ("C=CC(=O)N1CCC[C@@H](n2nc(-c3ccc(Oc4ccccc4)cc3C)c3c(N)ncnc32)C1 [Compound 2]", 211),
]

# evaluate next
Enquiry: # lookup: IC50 of C=CC(=O)N1CCCC(n2nc(-c3c(C)cc(Oc4ccccc4)cc3C)c3c(N)ncnc32)C1 (stereo in doubt) [Compound 3]
Return: 806

* * *

- systemTested: HCK (Homo sapiens, UniProt P08631)
- Sequence (P08631 whole entry): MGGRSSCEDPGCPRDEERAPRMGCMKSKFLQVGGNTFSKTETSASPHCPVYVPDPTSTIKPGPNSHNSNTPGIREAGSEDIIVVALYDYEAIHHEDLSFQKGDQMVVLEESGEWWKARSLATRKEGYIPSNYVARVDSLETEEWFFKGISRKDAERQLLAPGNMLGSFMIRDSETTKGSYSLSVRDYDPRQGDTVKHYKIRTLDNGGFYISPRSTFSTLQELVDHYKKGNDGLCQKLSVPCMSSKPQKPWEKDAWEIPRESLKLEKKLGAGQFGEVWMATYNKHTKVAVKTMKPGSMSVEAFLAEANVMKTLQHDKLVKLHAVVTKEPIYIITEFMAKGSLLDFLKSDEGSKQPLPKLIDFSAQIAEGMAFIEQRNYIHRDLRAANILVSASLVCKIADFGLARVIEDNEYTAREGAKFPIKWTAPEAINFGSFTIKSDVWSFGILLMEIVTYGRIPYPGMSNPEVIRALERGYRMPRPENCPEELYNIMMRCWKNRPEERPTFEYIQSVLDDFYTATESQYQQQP
assayMetric: IC50 (nM)
Please respond with the number in nM and leave the unit unwritten.

Enquiry: Short answer please: IC50, HCK (Homo sapiens, UniProt P08631), entry C=CC(=O)N1CCCC(n2nc(-c3c(C)cc(Oc4ccccc4)cc3C)c3c(N)ncnc32)C1 (stereo in doubt)
Return: 2310
